These measurements were taken from paper PMC12250302.

System: MRSA-1
assayMethodText: MIC and MBC testing, broth microdilution
Assay type: cell-based, Staphylococcus aureus
setupConditions: Staphylococcus aureus; MRSA-1; read-out: MBC
observedProperty: log10(MBC) (log10 of the value in µg/mL)
Hey, these are logged values: log10 of MBC, µg/mL being the unit before logging.

itemSmiles	log10(MBC)
[H]/N=C(\N)NN=C1CCCc2cc(OCc3ccc(C(F)(F)F)cc3)ccc21	0.90
[H]/N=C(\N)NN=C1CCCc2cc(OCC=C(C)C)ccc21	1.20
[H]/N=C(\N)NN=C1CCCc2cc(OCCCC)ccc21	0.30
[H]/N=C(\N)NN=C1CCCc2cc(OCCCCCCCCCCC)ccc21	1.20
[H]/N=C(\N)NN=C1CCCc2cc(OCc3ccc(F)cc3)ccc21	1.20
[H]/N=C(\N)NN=C1CCCc2cc(OCc3ccc(Br)cc3)ccc21	0.60
[H]/N=C(\N)NN=C1CCCc2cc(OCc3ccc(F)c(F)c3)ccc21	1.51
[H]/N=C(\N)NN=C1CCCc2cc(OCCCCC)ccc21	1.51

For every item in the list below, what is its measured log10(MBC)?
1. [H]/N=C(\N)NN=C1CCCc2cc(OCc3ccccc3Br)ccc21
2. [H]/N=C(\N)NN=C1CCCc2cc(OCc3cccc(F)c3)ccc21
3. [H]/N=C(\N)NN=C1CCCc2cc(OCc3cccc(C(F)(F)F)c3)ccc21
4. [H]/N=C(\N)NN=C1CCCc2cc(OCc3ccc(F)cc3F)ccc21
5. [H]/N=C(\N)NN=C1CCCc2cc(OCCCCCCCCCC)ccc21
6. [H]/N=C(\N)NN=C1CCCc2cc(OCc3ccc(F)c(Cl)c3)ccc21
7. [H]/N=C(\N)NN=C1CCCc2cc(OCc3cccc(-c4ccccc4)c3)ccc21
8. [H]/N=C(\N)NN=C1CCCc2cc(OCCCCCCCC)ccc21

RESULT:
[0.90, 0.90, 1.20, 1.51, 1.20, 1.51, 1.51, 0.90]

For every item in the list below, what is its measured log10(MBC)?
1. [H]/N=C(\N)NN=C1CCCc2cc(OCc3ccc(F)cc3Cl)ccc21
2. [H]/N=C(\N)NN=C1CCCc2cc(OCCCCCC)ccc21

RESULT:
0.90
1.20

* * *

Tested on: A. baumannii ATCC 19606
assayMethodText: MIC and MBC testing, broth microdilution
Assay type: cell-based, Acinetobacter baumannii
setupConditions: Acinetobacter baumannii, ATCC19606, 18 h, read-out: MIC
Exercise: state measured MIC for each of the compounds provided.

compound	measuredValue
[H]/N=C(\N)NN=C1CCCc2cc(OCc3c(F)cccc3F)ccc21	16 µg/mL
[H]/N=C(\N)NN=C1CCCc2cc(OCc3ccc(F)c(F)c3)ccc21	8 µg/mL
[H]/N=C(\N)NN=C1CCCc2cc(OCCCCCCCCCCC)ccc21	> 32 µg/mL
[H]/N=C(\N)NN=C1CCCc2cc(OCc3ccc(C#N)cc3)ccc21	16 µg/mL

For every item in the list below, what is its measured MIC?
1. [H]/N=C(\N)NN=C1CCCc2cc(OCc3cccc(Br)c3)ccc21
2. [H]/N=C(\N)NN=C1CCCc2cc(OCc3ccc(Br)cc3)ccc21
3. [H]/N=C(\N)NN=C1CCCc2cc(OCc3cc(F)cc(F)c3)ccc21

RESULT:
1. 4 µg/mL
2. 8 µg/mL
3. 8 µg/mL

* * *

Exercise: state measured MBC for each of the compounds provided.
Test system: E. coli ATCC 25922
assayMethodText: MIC and MBC testing, broth microdilution
Type: cell-based, Escherichia coli
setupConditions: Escherichia coli, ATCC25922, read-out: MBC
Numbers only, in µg/mL.

itemSmiles	systemTested	observedProperty	measuredValue
[H]/N=C(\N)NN=C1CCCc2cc(OCCCCCC)ccc21	E. coli ATCC 25922	MBC	4

For every item in the list below, what is its measured MBC?
1. [H]/N=C(\N)NN=C1CCCc2cc(OCc3ccc(F)c(Cl)c3)ccc21
2. [H]/N=C(\N)NN=C1CCCc2cc(OCc3ccccc3F)ccc21

RESULT:
1: 16; 2: 8

* * *

Exercise: state measured MBC for each of the compounds provided.
Tested on: E. faecium ATCC 35667
assayMethodText: MIC and MBC testing, broth microdilution
Type: cell-based, Enterococcus faecium
setupConditions: Enterococcus faecium, ATCC35667; E. faecium ATCC 35667; read-out: MBC
Numbers only, in µg/mL.

Below: 3 compounds and their reported MBC.
itemSmiles	systemTested	scaleUnit	measuredValue
[H]/N=C(\N)NN=C1CCCc2cc(OCCCCCCCC)ccc21	E. faecium ATCC 35667	µg/mL	4
[H]/N=C(\N)NN=C1CCCc2cc(OCc3ccc(Br)cc3)ccc21	E. faecium ATCC 35667	µg/mL	8
[H]/N=C(\N)NN=C1CCCc2cc(OCc3cccc(C(F)(F)F)c3)ccc21	E. faecium ATCC 35667	µg/mL	8

For every item in the list below, what is its measured MBC?
1. [H]/N=C(\N)NN=C1CCCc2cc(OCc3ccc(C(F)(F)F)cc3)ccc21
2. [H]/N=C(\N)NN=C1CCCc2cc(OCc3ccc(F)c(Cl)c3)ccc21

RESULT:
1. 4
2. 16

* * *

Exercise: state measured MIC for each of the molecules provided.
System: A. baumannii ATCC 19606
assayMethodText: MIC and MBC testing, broth microdilution
Format: cell-based, Acinetobacter baumannii
setupConditions: Acinetobacter baumannii, ATCC19606, 18 h, read-out: MIC
Answers are plain numbers, in µg/mL.

Below: 5 molecules and their reported MIC.
molecule	systemTested	measuredValue
[H]/N=C(\N)NN=C1CCCc2cc(OCc3cccc(C(F)(F)F)c3)ccc21 [Compound 1I]	A. baumannii ATCC 19606	8
[H]/N=C(\N)NN=C1CCCc2cc(OCCCCC)ccc21 [Compound 2B]	A. baumannii ATCC 19606	8
[H]/N=C(\N)NN=C1CCCc2cc(OCc3ccc(F)cc3)ccc21 [Compound 1C]	A. baumannii ATCC 19606	8
[H]/N=C(\N)NN=C1CCCc2cc(OCc3cc(F)ccc3F)ccc21 [Compound 1E]	A. baumannii ATCC 19606	8
[H]/N=C(\N)NN=C1CCCc2cc(OCCCCCCC)ccc21 [Compound 2D]	A. baumannii ATCC 19606	4

For every item in the list below, what is its measured MIC?
1. [H]/N=C(\N)NN=C1CCCc2cc(OCc3ccc(F)cc3F)ccc21 [Compound 1D]
2. [H]/N=C(\N)NN=C1CCCc2cc(OCC=C(C)C)ccc21 [Compound 2I]

RESULT:
1. 8
2. 16

* * *

Exercise: state measured MBC for each of the compounds provided.
Tested on: S. aureus ATCC 29213
assayMethodText: MIC and MBC testing, broth microdilution
Type: cell-based, Staphylococcus aureus
setupConditions: Staphylococcus aureus, ATCC29213; S. aureus ATCC 29213; read-out: MBC
Answers are plain numbers, in µg/mL.

Below: 5 compounds and their reported MBC.
compound	MBC [µg/mL]
[H]/N=C(\N)NN=C1CCCc2cc(OCCCCCCCCCC)ccc21 [Compound 2G]	8
[H]/N=C(\N)NN=C1CCCc2cc(OCc3ccc(C(F)(F)F)cc3)ccc21 [Compound 1J]	16
[H]/N=C(\N)NN=C1CCCc2cc(OCCCCC)ccc21 [Compound 2B]	8
[H]/N=C(\N)NN=C1CCCc2cc(OCCCCCCC)ccc21 [Compound 2D]	4
[H]/N=C(\N)NN=C1CCCc2cc(OCc3ccc(F)c(Cl)c3)ccc21 [Compound 1U]	4

For every item in the list below, what is its measured MBC?
1. [H]/N=C(\N)NN=C1CCCc2cc(OCc3cccc(Br)c3)ccc21 [Compound 1R]
2. [H]/N=C(\N)NN=C1CCCc2cc(OCc3c(F)cccc3F)ccc21 [Compound 1F]

RESULT:
1: 16; 2: 16

For every item in the list below, what is its measured MBC?
1. [H]/N=C(\N)NN=C1CCCc2cc(OCc3ccc(C#N)cc3)ccc21 [Compound 1V]
2. [H]/N=C(\N)NN=C1CCCc2cc(OCc3cc(F)ccc3F)ccc21 [Compound 1E]

RESULT:
[32, 16]

* * *

Tested on: clinical S. aureus isolate LMY47
assayMethodText: MIC and MBC testing, broth microdilution
Assay type: cell-based, Staphylococcus aureus
setupConditions: Staphylococcus aureus; LMY47; read-out: MBC
observedProperty: MBC (µg/mL)
One number for each entry, in µg/mL.

Below: 2 compounds and their reported MBC.
compound	observedProperty	measuredValue
[H]/N=C(\N)NN=C1CCCc2cc(OCCCCC)ccc21 [Compound 2B]	MBC	8
[H]/N=C(\N)NN=C1CCCc2cc(OCc3cc(F)cc(F)c3)ccc21 [Compound 1G]	MBC	8

For every item in the list below, what is its measured MBC?
1. [H]/N=C(\N)NN=C1CCCc2cc(OCCCCCCCCCCC)ccc21 [Compound 2H]
2. [H]/N=C(\N)NN=C1CCCc2cc(OCc3cccc(F)c3)ccc21 [Compound 1B]
3. [H]/N=C(\N)NN=C1CCCc2cc(OCc3ccc(F)cc3F)ccc21 [Compound 1D]

RESULT:
16
8
8
